Task for the reader: assign each of the following molecules its reported viability, T/C.
# System: 966289-007-R4-J1-PDC complex spheroid viability
# protocolDetails: Anticancer human tumor 966289-007-R4-J1-PDC patient-derived pancreatic adenocarcinoma cell line growth inhibition [RAS]
# measurementConditions: second compound 0.01 µM; first compound 0.00316 µM; stronger effect = lower value
Just the number please, in %, no unit attached.

Data point: CC(C)n1nc(-c2ccc3oc(N)nc3c2)c2c(N)ncnc21 + C=CC(=O)N1CCN(c2nc(OCC3CCCN3C)nc3c(F)c(-c4nc(N)cc(C)c4C(F)(F)F)c(Cl)cc23)C(C)C1 ; viability, T/C = 112

Data point: Nc1ccn(C2OC(CO)C(O)C2(F)F)c(=O)n1 (stereo not given) + C=CC(=O)N1CCN(c2nc(OCC3CCCN3C)nc3c(F)c(-c4nc(N)cc(C)c4C(F)(F)F)c(Cl)cc23)C(C)C1 ; viability, T/C = 113

Data point: CCN1CCN(Cc2ccc(Nc3ncc(F)c(-c4cc(F)c5nc(C)n(C(C)C)c5c4)n3)nc2)CC1 + C=CC(=O)N1CCN(c2nc(OCC3CCCN3C)nc3c(F)c(-c4nc(N)cc(C)c4C(F)(F)F)c(Cl)cc23)C(C)C1 ; viability, T/C = 96

Data point: O=C(c1ccc(F)c(F)c1Nc1ccc(I)cc1F)N1CC(O)([C@@H]2CCCCN2)C1 + C=CC(=O)N1CCN(c2nc(OCC3CCCN3C)nc3c(F)c(-c4nc(N)cc(C)c4C(F)(F)F)c(Cl)cc23)C(C)C1 ; viability, T/C = 78.5

Data point: C=CC(=O)Nc1cc(Nc2nccc(-c3cn(C)c4ccccc34)n2)c(OC)cc1N(C)CCN(C)C + C=CC(=O)N1CCN(c2nc(OCC3CCCN3C)nc3c(F)c(-c4nc(N)cc(C)c4C(F)(F)F)c(Cl)cc23)C(C)C1 ; viability, T/C = 95.6

====

# Test system: 966289-007-R4-J1-PDC complex spheroid viability
# protocolDetails: Anticancer human tumor 966289-007-R4-J1-PDC cell line growth inhibition [RAS];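 note: spheroids exposed to agents for one week before readout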;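 for viability, T/C: percent viability relative to DMSO vehicle control wells as 100%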
# measurementConditions: compound 1 µM; stronger effect = lower value
Task for the reader: assign each of the following compounds its reported viability, T/C.

Data point: "CCN1CCN(Cc2ccc(Nc3ncc(F)c(-c4cc(F)c5nc(C)n(C(C)C)c5c4)n3)nc2)CC1" ; viability, T/C = 84% [middle of 4 runs]

Data point: Nc1ccn(C2OC(CO)C(O)C2(F)F)c(=O)n1 (stereo not given) ; viability, T/C = 1.33% [middle of 4 runs]

Data point: CC(=O)OC12COC1CC(O)C1(C)C(=O)C(O)C3=C(C)C(OC(=O)C(O)C(NC(=O)OC(C)(C)C)c4ccccc4)CC(O)(C(OC(=O)c4ccccc4)C21)C3(C)C (stereo not given) ; viability, T/C = 19.7% [middle of 4 runs]

Data point: CC(C)NCC(C(=O)N1CCN(c2ncnc3c2C(C)CC3O)CC1)c1ccc(Cl)cc1 (stereo not given) ; viability, T/C = 105% [middle of 4 runs]

Data point: CC1(O)CCCC1n1c(=O)c(C(F)F)cc2cnc(NC3CCN(S(C)(=O)=O)CC3)nc21 (stereo not given) ; viability, T/C = 31.8% [middle of 4 runs]

====

# Tested on: 966289-007-R4-J1-PDC complex spheroid viability
# protocolDetails: Anticancer human tumor 966289-007-R4-J1-PDC cell line growth inhibition [RAS];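 note: spheroids exposed to agents for one week before readout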
# measurementConditions: curve of first compound; second compound 0.003 µM
Task for the reader: assign each of the following compounds its reported pIC50.
Just so you know, pIC50 here is -log10 of the concentration in molar units; reply with that number alone.

Data point: Nc1ccn(C2OC(CO)C(O)C2(F)F)c(=O)n1 (stereo not drawn) + CCn1c(-c2cc(N3CCN(C)CC3)cnc2C(C)OC)c2c3cc(ccc31)-c1csc(n1)CC(NC(=O)C1CC1C)C(=O)N1CCCC(N1)C(=O)OCC(C)(C)C2 ; pIC50 = 8.20

Data point: CC(C)n1nc(-c2ccc3oc(N)nc3c2)c2c(N)ncnc21 + CCn1c(-c2cccnc2C(C)OC)c2c3cc(ccc31)N1CCOC(CC(NC(=O)C(C(C)C)N(C)C(=O)C3(F)CCN(C(=O)C#CC(C)(C)N(C)C)CC3)C(=O)N3CCCC(N3)C(=O)OCC(C)(C)C2)C1 ; pIC50 = 7.53

Data point: CC1(C)CCC(Nc2ncc(C(F)(F)F)c(-c3c[nH]c4c(P(C)(C)=O)c(C#N)ccc34)n2)CN1 (stereo not drawn) + CCn1c(-c2cccnc2C(C)OC)c2c3cc(ccc31)N1CCOC(CC(NC(=O)C(C(C)C)N(C)C(=O)C3(F)CCN(C(=O)C#CC(C)(C)N(C)C)CC3)C(=O)N3CCCC(N3)C(=O)OCC(C)(C)C2)C1 ; pIC50 = 8.27
